Values were extracted from paper PMC9313812.

Tested on: C3H/10T1/2 cells
TEST_PROTOCOL: Osteoblast differentiation assay (ODA): purmorphamine-induced osteogenesis, alkaline phosphatase luminescence readout
Type: cell-based, mouse
PARTICULARS: Mus musculus, C3H 10T1/2; Table S7; 1.5 µM purmorphamine, 96 h; mean ± SD, n=3; highest test concentration 30 µM; read-out: Osteogenesis IC50
PARAMETER: IC50 (nM)
Report as a plain number; the unit nM is understood.

// known answers, use as guide
• COC(=O)C1(CCC(C)=O)N=C(c2ccc(Br)cc2)C2C(=O)N(C)C(=O)C21 (stereo not shown) [7c] = 6200
• COC(=O)C1(C=CC(=O)c2ccccc2)N=C(c2ccc(Br)cc2)C2C(=O)N(C)C(=O)C21 (stereo not shown) [7g] = 3130

Would you kindly share the measured IC50 for COC(=O)C1(C(CC(=O)c2ccccc2)c2ccccc2)N=C(c2ccc(Br)cc2)C2C(=O)N(C)C(=O)C21 (stereo not shown) [7a] ?
1500

Need IC50 of COC(=O)C1(CCC(=O)C=Cc2ccccc2)N=C(c2ccc(Br)cc2)C2C(=O)N(C)C(=O)C21 (stereo not shown) [7e] , thanks.
2810
